Target: Bcl-2-like protein 10 (Homo sapiens)
Experiment: displacers of TR3 peptide from Bcl-B, primary screen, selectivity assay for Bfl-1 inhibitor project, biochemical, fluorescence polarization, FITC-TR3 peptide (AID 748);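 note: plate controls were wells without compound for no effect and wells lacking Bcl-B protein for full effect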
Conditions: FP displacement of FITC-TR3 peptide from Bcl-B; at 20 µM; hits give high values
In all, about 96,000 compounds went through this assay and about 100 (0.1%) were called active. Only a selection was taken, and actives are over-represented in it overall. Entries with a potency or affinity are not part of this list.
measure: displacement (%)
Give just the numeric value; % need not be written.

Qu. State the recorded displacement for this entry: "O=c1c2cc(N3CCOCC3)ccc2[nH]c(=S)n1CCCN1CCCC1"
Ans. 13.1

Qu. State the recorded displacement for this entry: "Cc1ccc(S(=O)(=O)Cc2ccc(C(=O)N3CCN(Cc4ccccc4)CC3)o2)cc1"
Ans. 16.9

Qu. State the recorded displacement for this entry: "COc1ccccc1-c1nnc2sc(COc3ccccc3)nn12"
Ans. 0.4

Qu. State the recorded displacement for this entry: "CCOc1cc(N2CCOCC2)c(OCC)cc1NC(=O)c1cc(-c2ccco2)nc2ccccc12"
Ans. 25.3

Qu. State the recorded displacement for this entry: "Cc1cccc(NC(=O)c2cc(-c3ccco3)nc3ccccc23)n1"
Ans. 41.4

Qu. State the recorded displacement for this entry: "O=C(CSc1ncccc1-c1nc2ccccc2[nH]1)N1CCN(c2ccccc2F)CC1"
Ans. -0.6

Qu. State the recorded displacement for this entry: CSc1nnc2n(Cc3ccccc3)c(=O)c3c4c(sc3n12)COC(C(C)C)C4 (stereo unspecified)
Ans. 1.6

Qu. State the recorded displacement for this entry: "O=C(O)c1cc(-c2ccco2)nc2ccccc12"
Ans. 18.6

Qu. State the recorded displacement for this entry: "O=C(CCC1CCCC1)N1CCN(S(=O)(=O)Cc2ccccc2)CC1"
Ans. -7.6

Qu. State the recorded displacement for this entry: "COC(=O)Nc1c(C)nn(Cc2ccccc2C)c1C"
Ans. -0.7

Qu. State the recorded displacement for this entry: "O=C(N/N=C/c1cccc(F)c1)c1cc(-c2ccco2)nc2ccccc12"
Ans. 39.5

----------
Hi there, I'd appreciate the recorded displacement for every entry that follows.
Biological target: Bcl-2-like protein 10 (Homo sapiens) (UniProt Q9HD36)
Test: displacers of TR3 peptide from Bcl-B, primary screen, selectivity assay for Bfl-1 inhibitor project, biochemical, fluorescence polarization, FITC-TR3 peptide (AID 748);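 note: plate controls were wells without compound for no effect and wells lacking Bcl-B protein for full effect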
Settings: FP displacement of FITC-TR3 peptide from Bcl-B; at 20 µM; hits give high values
About 100 (0.1%) of roughly 96,000 compounds were called active. This is one part of a sample in which actives are shown more often than they occur. Results with a measured potency or affinity are listed apart.
Give just the numeric value; % need not be written.

Qu. State the recorded displacement for this entry: "CSc1ccc(S(=O)(=O)Nc2ccc3c4c(cccc24)CC3)cc1"
Ans. 0.8

Qu. State the recorded displacement for this entry: "COc1ccc2nc(SCC(=O)/C(C#N)=C(\C)N)[nH]c2c1"
Ans. -14.3

Qu. State the recorded displacement for this entry: "Cc1ccc(S(=O)(=O)N2CCOCC2)cc1C(=O)OCC(=O)N1c2ccccc2NC(=O)C1(C)C"
Ans. 25

Qu. State the recorded displacement for this entry: "COc1ccc(-c2c(C)nn(-c3ccccc3)c2N)cc1"
Ans. -8

Qu. State the recorded displacement for this entry: "O=C(COC(=O)CCOc1ccccc1)Nc1ccc(Cl)cn1"
Ans. 16

Qu. State the recorded displacement for this entry: "NC(=S)N/N=C/c1ccc(-c2cccc([N+](=O)[O-])c2)o1"
Ans. -3.1

Qu. State the recorded displacement for this entry: "CCn1c(Cn2nnc(-c3ccccc3)n2)nnc1SCC(=O)Nc1ccc(N(C)C)cc1"
Ans. 4.2

Qu. State the recorded displacement for this entry: "C/C(N)=C(/C#N)C(=O)CSc1nc2ccc(C)cc2[nH]1"
Ans. 8.9

Qu. State the recorded displacement for this entry: O=S1(=O)CCC(NS(=O)(=O)c2cccc3cccnc23)C1 (centres undefined)
Ans. -3.6

Qu. State the recorded displacement for this entry: "Cc1ccc(NC(=O)CCn2nc(C)cc2C)c(C)c1"
Ans. -5

Qu. State the recorded displacement for this entry: "COc1ccc(C(=O)CCC(=O)N2CCN(c3ccc(N4CCOCC4)nn3)CC2)cc1"
Ans. 4.3

Qu. State the recorded displacement for this entry: CCOC(=O)c1ccccc1NC(=O)CC(C)CC(=O)O (centres undefined)
Ans. -5.5

Qu. State the recorded displacement for this entry: "Cn1c(N2CCN(C(=O)NCc3ccccc3)CC2)nc2ccccc21"
Ans. 6.9

Qu. State the recorded displacement for this entry: "Clc1cccc(/C=N\Nc2nccs2)c1"
Ans. -14.4

Qu. State the recorded displacement for this entry: "Cc1ccc(S(=O)(=O)NCCC(=O)NC2CCCC2)cc1"
Ans. 2

Qu. State the recorded displacement for this entry: "N/C(COc1ccc(F)cc1)=N\NC(=O)c1cccnc1Oc1ccccc1"
Ans. 12.1

Qu. State the recorded displacement for this entry: "CCC(=O)Nc1cccc(Br)c1"
Ans. -1.7

Qu. State the recorded displacement for this entry: "CCOc1cc(C(=O)Nc2ccon2)cc(OCC)c1OCC"
Ans. -15.8

Qu. State the recorded displacement for this entry: CC(C)CC(C(=O)Nn1cnnc1)N1C(=O)c2ccccc2C1=O (centres undefined)
Ans. -8.4

Qu. State the recorded displacement for this entry: "Cc1ccc(/C=N/NC(=O)c2cccs2)cc1[N+](=O)[O-]"
Ans. -1.9

Qu. State the recorded displacement for this entry: "COc1ccc(/C=N/NC(=O)COc2ccccc2-c2ccccc2)cc1"
Ans. -6.4

Qu. State the recorded displacement for this entry: "O=C1CCCN1c1ccc(Br)cc1"
Ans. -0.3

Qu. State the recorded displacement for this entry: "C/C(Cl)=C/Cn1c(=O)c2c(nc(Br)n2Cc2ccccc2)n(C)c1=O"
Ans. 4.3

Qu. State the recorded displacement for this entry: "Cc1cc(C)cc(OCC(=O)OCC(=O)Nc2ccc(Cl)cn2)c1"
Ans. -13.6
